Every entry's value here was drawn from patent US20220251079A1.

- target_system: human STING protein (140-379) (Homo sapiens, UniProt Q86WV6, H232R)
- Construct: 6XHIS-SUMO-hSTING (140-379); made in house; host or cells: BL-21(DE3) E. coli, pET vector
- Sequence (Q86WV6 140-379 H232R): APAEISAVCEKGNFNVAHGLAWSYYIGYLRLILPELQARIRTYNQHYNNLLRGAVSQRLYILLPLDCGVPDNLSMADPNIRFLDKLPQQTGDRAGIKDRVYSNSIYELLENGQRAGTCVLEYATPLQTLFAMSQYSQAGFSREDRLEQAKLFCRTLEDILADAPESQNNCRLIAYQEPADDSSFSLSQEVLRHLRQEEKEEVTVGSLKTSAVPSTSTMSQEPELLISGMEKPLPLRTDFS
- method_notes: Radiometric filtration binding competition assay (WT_FBA_HIS-SUMO-hSWAT)
- assay_context: read-out: WT-hSWAT IC50
- Description: A radiometric filtration binding competition assay was performed to quantify the binding affinity of compounds of the present application for the human or mouse STING protein, or associated HAQ human isoform. The competition format filtration binding assay detects the ability of small molecule compounds from binding to and inhibiting the subsequent binding of a tritiated [H3] […]
assay_metric: IC50

INSERT INTO measurements (smiles_repr, target_system, assay_metric, result) VALUES
  ('CN(C)c1c(Cl)ccc2c(=O)c3ccc(N(C)CC4CC(F)(F)C4)nc3n(CC(=O)O)c12', 'human STING protein (140-379) (Homo sapiens, UniProt Q86WV6, H232R)', 'IC50', '< 20 µM'),
  ('CSc1c(Cl)ccc2c(=O)c3ccc(C4(C)CC4)nc3n(CC(=O)O)c12', 'human STING protein (140-379) (Homo sapiens, UniProt Q86WV6, H232R)', 'IC50', '< 20 µM'),
  ('CSc1c(C)ccc2c(=O)c3ccc(C(C)(C)C)nc3n(CC(=O)O)c12', 'human STING protein (140-379) (Homo sapiens, UniProt Q86WV6, H232R)', 'IC50', '20 to 100 µM'),
  ('Cc1ccc2c(=O)c3ccc(Cl)c(N(C)C)c3n(CC(=O)NC#N)c2n1', 'human STING protein (140-379) (Homo sapiens, UniProt Q86WV6, H232R)', 'IC50', '> 300 µM'),
  ('CCOc1c(Cl)ccc2c(=O)c3ccc(N(CCOC)CC(F)F)nc3n(CC(=O)O)c12', 'human STING protein (140-379) (Homo sapiens, UniProt Q86WV6, H232R)', 'IC50', '100 to 300 µM'),
  ('CN(C)c1ccc2c(=O)c3ccc(Cl)c(-c4ccccc4)c3n(CC(=O)O)c2n1', 'human STING protein (140-379) (Homo sapiens, UniProt Q86WV6, H232R)', 'IC50', '20 to 100 µM'),
  ('CCOc1nc2c(cc1Cl)c(=O)c1ccc(Cl)c(N(C)C)c1n2CC(=O)O', 'human STING protein (140-379) (Homo sapiens, UniProt Q86WV6, H232R)', 'IC50', '< 20 µM'),
  ('CO[C@H]1C[C@@H](N(C)c2ccc3c(=O)c4ccc(C)c(N(C)C)c4n(CC(=O)O)c3n2)C1', 'human STING protein (140-379) (Homo sapiens, UniProt Q86WV6, H232R)', 'IC50', '< 20 µM');

###

- target_system: hSTING-R232 (Homo sapiens, UniProt Q86WV6, H232R)
- Construct: recombinant mouse or human STING protein (aa140-379); 6xHis-SUMO elsewhere) (cleaved yes); made in house
- method_notes: STING Differential Scanning Fluorimetry (DSF) assay, human
- Format: binding
- assay_context: human STING R232-WT, 5 μM protein
assay_metric: WT_DSF_hSWAT Tm Shift (° C.)

INSERT INTO assay_data (compound, target_system, result) VALUES
  ('CSc1c(Cl)ccc2c(=O)c3ccc(C(C)(C)C#N)nc3n(CC(=O)O)c12', 'hSTING-R232 (Homo sapiens, UniProt Q86WV6, H232R)', 'D (“D” > 7° C.)'),
  ('Cc1nccn1CCN(C)c1ccc2c(=O)c3ccc(Cl)c(N(C)C)c3n(CC(=O)O)c2n1', 'hSTING-R232 (Homo sapiens, UniProt Q86WV6, H232R)', 'D (“D” > 7° C.)'),
  ('CSc1c(Cl)ccc2c(=O)c3cc(Cl)c(N(C)C)nc3n(CC(=O)O)c12', 'hSTING-R232 (Homo sapiens, UniProt Q86WV6, H232R)', 'D (“D” > 7° C.)'),
  ('COCCN(CC(F)(F)F)c1ccc2c(=O)c3ccc(Cl)c(SC)c3n(CC(=O)O)c2n1', 'hSTING-R232 (Homo sapiens, UniProt Q86WV6, H232R)', 'D (“D” > 7° C.)'),
  ('CO[C@H]1C[C@@H](N(C)c2ccc3c(=O)c4ccc(C)c(N(C)C)c4n(CC(=O)O)c3n2)C1', 'hSTING-R232 (Homo sapiens, UniProt Q86WV6, H232R)', 'D (“D” > 7° C.)'),
  ('CSc1c(Cl)ccc2c(=O)c3ccc(N(C)CCS(=O)(=O)C(C)C)nc3n(CC(=O)O)c12', 'hSTING-R232 (Homo sapiens, UniProt Q86WV6, H232R)', 'D (“D” > 7° C.)'),
  ('C=Cc1c(Cl)ccc2c(=O)c3ccc(N(C)C)nc3n(CC(=O)O)c12', 'hSTING-R232 (Homo sapiens, UniProt Q86WV6, H232R)', 'D (“D” > 7° C.)'),
  ('CSc1c(Cl)ccc2c(=O)c3ccc(NC4CC(C#N)C4)nc3n(CC(=O)O)c12 (centres unmarked)', 'hSTING-R232 (Homo sapiens, UniProt Q86WV6, H232R)', 'D (“D” > 7° C.)'),
  ('CCOc1c(Cl)ccc2c(=O)c3ccc(NCC4CCOCC4)nc3n(CC(=O)O)c12', 'hSTING-R232 (Homo sapiens, UniProt Q86WV6, H232R)', 'D (“D” > 7° C.)'),
  ('CSc1c(Cl)ccc2c(=O)c3ccc(N(C)CCn4ccnc4)nc3n(CC(=O)O)c12', 'hSTING-R232 (Homo sapiens, UniProt Q86WV6, H232R)', 'D (“D” > 7° C.)'),
  ('CSc1c(Cl)ccc2c(=O)c3ccc(N(C)CCn4ccnc4C)nc3n(CC(=O)O)c12', 'hSTING-R232 (Homo sapiens, UniProt Q86WV6, H232R)', 'D (“D” > 7° C.)'),
  ('CSc1c(Cl)ccc2c(=O)c3ccc(N(C)C4CC(C#N)C4)nc3n(CC(=O)O)c12 (centres unmarked)', 'hSTING-R232 (Homo sapiens, UniProt Q86WV6, H232R)', 'D (“D” > 7° C.)'),
  ('CO[C@H]1C[C@@H](N(C)c2ccc3c(=O)c4ccc(C)c(SC)c4n(CC(=O)O)c3n2)C1', 'hSTING-R232 (Homo sapiens, UniProt Q86WV6, H232R)', 'D (“D” > 7° C.)'),
  ('CSc1c(C)ccc2c(=O)c3ccc(C(C)(C)C)nc3n(CC(=O)O)c12', 'hSTING-R232 (Homo sapiens, UniProt Q86WV6, H232R)', 'D (“D” > 7° C.)'),
  ('CN(C)c1c(Cl)ccc2c(=O)c3ccc(NCC4CC(F)(F)C4)nc3n(CC(=O)O)c12', 'hSTING-R232 (Homo sapiens, UniProt Q86WV6, H232R)', 'D (“D” > 7° C.)'),
  ('CCc1ccc2c(=O)c3ccc(Cl)c(N(C)C)c3n(CC(=O)O)c2n1', 'hSTING-R232 (Homo sapiens, UniProt Q86WV6, H232R)', 'D (“D” > 7° C.)');
